Attribution: PubChem BioAssay (NCI)

Test system: OVCAR-4 ovarian
assay-overview: NCI-60 one-dose screen, 48 h (100 = growth as untreated, 0 = no growth, -100 = all killed)
condition-context: 10 µM unless noted
The panel holds about 83,000 compounds, 20% with a hit somewhere; the sample as a whole holds those more often.
Listed here: items and their measured growth.
Only the number, expressed in %, is required.

compound	measured-quantity	test-value
O=C1C(Br)=C(c2ccccc2)C(=O)C(Br)=C1c1ccccc1	growth	90
O=S(=O)(Nc1ccc(Cl)c(Cl)c1)c1ccc(-c2cnc(C3CC3)o2)cc1	growth	46.4
CCSc1nnc2c3cc(Br)ccc3n(C)c2n1	growth	98
COC(=O)c1c2c(c(C)[n+]([O-])c1C)C(=O)C(NCc1ccc(O)cc1)=CC2=O	growth	-97.4
CCCCNNC(=O)c1ccc(Br)cc1	growth	73.9
COc1ccc(/C=C(\C#N)c2cc3ccccc3n2C)cc1	growth	37.1

Exercise: # query: growth of entry `COc1ccc(-c2csc3c2-n2cccc2C3=O)cc1O`
Key: 37.4

Exercise: Field entry: `COc1cc(/C=C2\C(=O)N(c3c(Cl)cccc3Cl)c3ccccc32)cc(OC)c1O`
Key: 53.6

Exercise: Field entry: `CN1CCn2c(c(Sc3ccc(C(=O)NO)cc3)c3ccccc32)C1=O`
Key: 14

Exercise: Field entry: O=C(NC1CC1)c1cc2n(n1)CC(c1ccccc1)N2 (stereo unspecified)
Key: 104

Exercise: Field entry: `O=c1c2c(=NCCN3CCCC3)cc3c(=O)n(CCCN4CCOCC4)c(=O)c4c(-c5ccc(CN6CCCC6)cc5)cc(c(O)n1CCCN1CCOCC1)c2c4-3`
Key: -50.7

Exercise: Field entry: `OB(O)c1ccccc1`
Key: 115

Exercise: Field entry: N#CC1=C(N)Oc2cc(N)ccc2C1c1ccc(F)cc1 (stereo unspecified)
Key: 94.1

Exercise: Field entry: `COc1ccc(-c2nn(-c3ccc(NC(=O)c4ccc(Cl)c(Cl)c4)cc3)cc2-c2ccncc2)cc1Cl`
Key: 79.5

Exercise: Field entry: `COc1ccc(Sc2ccc3[nH]c(=O)nc(N)c3c2)cc1`
Key: 99.7

Exercise: Field entry: `COc1ccc(/C=N\N2CCOCC2)cc1OC1CCCC1`
Key: 97.6

Exercise: Field entry: `ONc1nc(NO)c2[nH]cnc2n1`
Key: 84.7

Exercise: Field entry: O=C(c1ccccc1)C(Br)C(Br)c1cccc([N+](=O)[O-])c1 (stereo unspecified)
Key: 29.3

Exercise: Field entry: `O=C1/C(=C/c2ccc(Cl)cc2)N=C(c2ccccc2)N1CCc1cccs1`
Key: 62.1

Exercise: Field entry: `Cc1nc2cc(Nc3nc(NCCN)nc(Nc4ccc(F)cc4)n3)ccc2n1Cc1ccccc1`
Key: 77

Exercise: Field entry: `O=C1/C(=C/c2ccc(F)cc2)CN(Cc2cn(CCNc3ccnc4cc(Cl)ccc34)nn2)C/C1=C\c1ccc(F)cc1`
Key: 23.3

Exercise: Field entry: `Cc1ccc(S(=O)(=O)c2ccc3[nH]c(=O)[nH]c(=O)c3c2)cc1`
Key: 97.9

Exercise: Field entry: `COc1cc(-c2nc(SC(C)C)nc(Nc3ccccc3C)c2C#N)cc(OC)c1OC`
Key: 110

Exercise: Field entry: CCOC(=O)c1cnn(CC(O)c2ccc(F)cc2)c1NC(=O)Nc1ccccc1F (stereo unspecified)
Key: 81.7

Exercise: Field entry: `Cc1nn(-c2ccccc2)c2nc3nc4c(c(N)c3c(-c3ccc(Cl)cc3)c12)CCCC4`
Key: 109

Exercise: Field entry: `CC(=O)c1cc(C)c(OC(=O)c2ccccc2)c(C)c1`
Key: 91.6

Exercise: Field entry: `CCN(c1ccc(C(=O)N2CCN(c3ccccc3)CC2)cc1)S(C)(=O)=O`
Key: 107

Exercise: Field entry: `Cc1ccccc1-c1cc(-c2ccc(Br)s2)[nH]c(=O)c1C#N`
Key: 108
